From: patent US20260151519A1

- SYSTEM_NAME: T1, Human Nectin-4 (human, UniProt Q96NY8 32-349, limits assumed)
- T1 construct: Protein immobilised on the SPR chip; also called target protein
- T1 sequence: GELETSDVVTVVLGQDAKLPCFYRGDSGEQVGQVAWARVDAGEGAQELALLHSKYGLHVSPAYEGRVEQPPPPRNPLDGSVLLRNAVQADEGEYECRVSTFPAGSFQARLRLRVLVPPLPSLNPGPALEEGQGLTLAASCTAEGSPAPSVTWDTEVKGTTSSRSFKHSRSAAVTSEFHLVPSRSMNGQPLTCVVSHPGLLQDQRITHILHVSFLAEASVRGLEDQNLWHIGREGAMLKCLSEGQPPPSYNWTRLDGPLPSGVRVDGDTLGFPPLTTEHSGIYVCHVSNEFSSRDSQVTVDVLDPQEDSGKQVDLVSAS
- PROCEDURE_DETAILS: Table 2B (DELFIA or SPR)
Bridges are numbered along the chain shown (N, C = ends). Primed or numbered codes have the meaning given here. Where no end group is shown, it is not given here. The star is where a group is joined. Biotin = O=C1N[C@H]2[C@H](CS[C@H]2CCCCC(=O)*)N1; PEG4″ = 4(ethylene glycol)
Please provide measured Kd for the entries that follow.

Example binders with recorded Kd:
Returns the measured Kd for the input binder. Input: Ac-CEYDEEFFLGLKRLRGGDICYYIKKKFKKVPELCIEEILEKLGC-OH (designed binder, disulfide 1-34, 20-44) [C68]
2.66 nM

Returns the measured Kd for the input binder. Input: Ac-CEYDEEFFLGLKRLRGGDICYYIKKKFKKVPKLCIEEILDKLGC-OH (designed binder, disulfide 1-34, 20-44) [C58]
1.81 nM

Answer for every listed entry: what is its Kd? The entries follow.
1. {Biotin-PEG4″}-CEYDEEFFTALKKLRGGDICYYIQQAFNYLPGICIEEILDNLGC (designed binder, disulfide 1-34, 20-44) [C107]
2. Ac-CEYDEEFFAGLKRLRGTDICYYIKKKFDKVPDLCIEEILDKLGC-OH (designed binder, disulfide 1-34, 20-44) [C22]
3. Ac-CEYDEEFFAGLHRLRGTDICYYIKKKFDKVPDLCIEEILDKLGC-OH (designed binder, disulfide 1-34, 20-44) [C23]

3.38 nM
12.8 nM
18.5 nM
